Target: mTLR7 (Mus musculus, UniProt P58681)
Construct: Splenocytes isolated from male C57/BL6 mice; from tissue; host or cells: splenocytes from the spleen of male C57BL/6 mice
Sequence (P58681 27-1050): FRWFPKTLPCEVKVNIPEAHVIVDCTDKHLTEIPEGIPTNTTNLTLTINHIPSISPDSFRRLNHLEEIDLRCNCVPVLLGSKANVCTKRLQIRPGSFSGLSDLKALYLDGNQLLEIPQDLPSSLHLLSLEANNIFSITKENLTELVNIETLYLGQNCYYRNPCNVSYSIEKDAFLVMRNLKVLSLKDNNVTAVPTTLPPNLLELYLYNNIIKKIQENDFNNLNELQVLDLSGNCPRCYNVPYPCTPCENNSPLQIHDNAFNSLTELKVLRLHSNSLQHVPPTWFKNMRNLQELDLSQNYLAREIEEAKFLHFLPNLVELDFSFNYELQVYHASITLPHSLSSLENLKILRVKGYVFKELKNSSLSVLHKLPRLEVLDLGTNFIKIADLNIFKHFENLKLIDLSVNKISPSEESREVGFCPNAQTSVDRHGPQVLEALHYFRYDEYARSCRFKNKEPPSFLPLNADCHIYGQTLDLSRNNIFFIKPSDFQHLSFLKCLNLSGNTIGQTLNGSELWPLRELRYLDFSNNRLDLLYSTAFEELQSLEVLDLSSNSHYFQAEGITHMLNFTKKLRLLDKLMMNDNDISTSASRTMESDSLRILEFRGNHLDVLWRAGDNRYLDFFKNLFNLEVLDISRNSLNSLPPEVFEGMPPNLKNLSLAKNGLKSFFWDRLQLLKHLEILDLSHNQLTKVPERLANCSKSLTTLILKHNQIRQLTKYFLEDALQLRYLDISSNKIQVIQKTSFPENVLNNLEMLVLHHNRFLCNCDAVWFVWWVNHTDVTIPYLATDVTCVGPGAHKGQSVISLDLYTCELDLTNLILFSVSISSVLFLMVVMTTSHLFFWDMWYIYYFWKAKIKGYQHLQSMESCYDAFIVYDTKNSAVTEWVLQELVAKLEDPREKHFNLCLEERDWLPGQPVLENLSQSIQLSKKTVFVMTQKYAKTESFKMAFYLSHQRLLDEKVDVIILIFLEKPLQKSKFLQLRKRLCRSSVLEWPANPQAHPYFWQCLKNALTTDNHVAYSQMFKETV
Assay: mTLR7 antagonism (IL-6 and TNF-α release assay) in mouse splenocytes, R0006/DOTAP stimulated
Type: cell-based
Settings: 1 μM; IL-6 release, mouse splenocytes; read-out: mTLR7 inhibitory activity (% at 1 μM), IL-6
Protocol: mTLR9 and mTLR7 Antagonism (Cytokine Release Assay) in Mouse Splenocytes […] 1 mg/ml stock of R0006 was prepared in sterile, endotoxin-free water. […] S/B Ratio, % Activity and % Inhibition was calculated using MS Excel. […]
measured_parameter: inhibition at 1 µM (%)

Below, 3 compounds whose answers are already recorded.
structure_string: Cc1cc2c(cc(CCN3CCOCC3)n2C)c(-c2cccc(N3CCN(C(C)C)CC3)c2)n1
inhibition at 1 µM [%]: 100
--
structure_string: Cc1nc(-c2ccc(N3CCN(C(C)C)CC3)cc2)c2cc(CN3CCOCC3)[nH]c2c1C
inhibition at 1 µM [%]: 100
--
structure_string: c1cc2[nH]c(CN3CCOCC3)cc2c(-c2ccc(N3CCN(C4COC4)CC3)cc2)n1
inhibition at 1 µM [%]: 25

A: c1cc2[nH]c(CN3CCOCC3)cc2c(-c2ccc(N3CCNCC3)cc2)n1
B: CC(C)N1CCN(c2ccc(-c3nccc4[nH]c(CN5CC(F)C5)cc34)cc2)CC1
Exercise: Lab note: check whether A or B shows the higher recorded inhibition at 1 µM. Refer to your chosen item by its label in the answer.
Solution: B
